The origin of these recorded values is patent US8614327B2.

Molecular target: ΔF508-CFTR (Homo sapiens, UniProt P13569, DEL508-508)
Construct: expressed in transfected cells
Sequence (P13569 with tags, fused parts or gaps DEL508-508): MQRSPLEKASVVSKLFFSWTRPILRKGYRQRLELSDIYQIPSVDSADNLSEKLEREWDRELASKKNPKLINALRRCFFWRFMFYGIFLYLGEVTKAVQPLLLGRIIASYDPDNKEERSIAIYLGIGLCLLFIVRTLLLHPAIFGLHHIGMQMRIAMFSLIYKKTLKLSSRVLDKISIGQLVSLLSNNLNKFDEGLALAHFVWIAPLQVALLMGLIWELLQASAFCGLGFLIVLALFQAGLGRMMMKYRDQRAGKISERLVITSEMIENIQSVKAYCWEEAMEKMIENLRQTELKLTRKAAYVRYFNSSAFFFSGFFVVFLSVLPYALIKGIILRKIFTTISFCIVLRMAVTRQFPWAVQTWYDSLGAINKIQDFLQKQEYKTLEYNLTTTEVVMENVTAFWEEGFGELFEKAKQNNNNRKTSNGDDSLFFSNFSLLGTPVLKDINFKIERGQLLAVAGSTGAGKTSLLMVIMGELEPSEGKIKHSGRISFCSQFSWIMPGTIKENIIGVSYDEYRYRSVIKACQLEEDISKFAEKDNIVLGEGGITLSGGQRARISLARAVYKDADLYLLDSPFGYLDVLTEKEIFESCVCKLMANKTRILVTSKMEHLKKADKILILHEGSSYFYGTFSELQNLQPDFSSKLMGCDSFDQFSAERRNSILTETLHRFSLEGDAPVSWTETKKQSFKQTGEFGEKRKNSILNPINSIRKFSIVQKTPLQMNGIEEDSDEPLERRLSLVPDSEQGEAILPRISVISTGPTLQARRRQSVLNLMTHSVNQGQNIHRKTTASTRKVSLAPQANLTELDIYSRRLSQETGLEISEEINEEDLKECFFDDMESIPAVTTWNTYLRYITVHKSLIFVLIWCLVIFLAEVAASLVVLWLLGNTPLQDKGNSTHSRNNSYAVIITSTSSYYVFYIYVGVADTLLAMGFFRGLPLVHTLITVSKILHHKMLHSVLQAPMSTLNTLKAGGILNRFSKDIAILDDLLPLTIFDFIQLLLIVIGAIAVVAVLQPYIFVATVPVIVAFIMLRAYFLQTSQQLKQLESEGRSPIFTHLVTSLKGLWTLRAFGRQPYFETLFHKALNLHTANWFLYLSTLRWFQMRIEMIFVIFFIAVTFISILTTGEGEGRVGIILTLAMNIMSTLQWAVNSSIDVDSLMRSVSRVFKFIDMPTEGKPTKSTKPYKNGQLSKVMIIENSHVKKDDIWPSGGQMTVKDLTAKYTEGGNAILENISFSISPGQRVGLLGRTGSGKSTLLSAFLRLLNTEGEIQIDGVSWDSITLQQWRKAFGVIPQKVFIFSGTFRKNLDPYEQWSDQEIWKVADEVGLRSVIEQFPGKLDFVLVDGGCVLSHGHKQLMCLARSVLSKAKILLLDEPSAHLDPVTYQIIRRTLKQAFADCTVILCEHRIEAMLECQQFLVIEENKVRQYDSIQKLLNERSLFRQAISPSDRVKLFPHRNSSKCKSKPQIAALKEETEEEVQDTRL
Assay: Membrane potential optical (FRET/VIPR) assay, identification of potentiator compounds
Format: cell-based
Details: Table 3; relative efficacy; assay not given
property-measured: % Activity

Study these solved cases before continuing.
[
  {
    "compound": "O=C(Nc1ccccc1-c1ccc2c(c1)OCO2)c1c[nH]c2ccccc2c1=O [Compound 135]",
    "readout-value": "+++ (>100%)"
  },
  {
    "compound": "COC(=O)c1cccc(-c2ccccc2NC(=O)c2c[nH]c3ccccc3c2=O)c1 [Compound 68]",
    "readout-value": "++ (between 25% to 100%)"
  },
  {
    "compound": "CC(C)(C)c1ccc(NC(=O)c2c[nH]c3ccccc3c2=O)cc1N1CCCCC1 [Compound 510]",
    "readout-value": "++ (between 25% to 100%)"
  },
  {
    "compound": "O=C(Nc1cccc(Cl)c1)c1c[nH]c2ccccc2c1=O [Compound 370]",
    "readout-value": "++ (between 25% to 100%)"
  }
]

Prompt line: If you can, please state the reported % Activity value of COc1ccc(-c2ccccc2NC(=O)c2c[nH]c3ccccc3c2=O)cc1 [Compound 305] .
Response line: +++ (>100%)

###

Target: ΔF508-CFTR (Homo sapiens, UniProt P13569, DEL508-508)
Assay: Membrane potential optical (FRET/VIPR) assay, identification of potentiator compounds
Conditions: Table 3; assay not given
From the text: […]
property-measured: EC50

[
  {
    "molecule": "Cc1c[nH]c2cc(NC(=O)c3c[nH]c4ccccc4c3=O)ccc12 [Compound 113]",
    "EC50": "< 10 µM"
  },
  {
    "molecule": "O=C(Nc1ccc(C(F)(F)F)nc1)c1c[nH]c2ccccc2c1=O [Compound 197]",
    "EC50": "25 to 60 µM"
  },
  {
    "molecule": "Cc1ccc(S(=O)(=O)Nc2ccccc2NC(=O)c2c[nH]c3ccccc3c2=O)cc1 [Compound 398]",
    "EC50": "10 to 25 µM"
  }
]

Prompt line: If you can, please state the reported EC50 value of O=C(Nc1ccccc1-c1cccc(OC(F)(F)F)c1)c1c[nH]c2ccccc2c1=O [Compound 253] .
Response line: < 10 µM

###

Molecular target: ΔF508-CFTR (Homo sapiens, UniProt P13569, DEL508-508)
Construct: expressed in transfected cells
Assay: Membrane potential optical (FRET/VIPR) assay, identification of potentiator compounds
Assay type: cell-based
Details: Table 3; relative efficacy; assay not given
property-measured: % Activity

Study these solved cases before continuing.
[
  {
    "record-smiles": "O=C(Nc1ccc(OCc2ccccc2)cc1)c1c[nH]c2ccccc2c1=O",
    "% Activity": "++ (between 25% to 100%)"
  },
  {
    "record-smiles": "CC(C)(C)c1ccc(NC(=O)c2c[nH]c3ccc(F)cc3c2=O)cc1F",
    "% Activity": "++ (between 25% to 100%)"
  },
  {
    "record-smiles": "O=C(Nc1ccccc1-c1ccc(Cl)c(Cl)c1)c1c[nH]c2ccccc2c1=O",
    "% Activity": "++ (between 25% to 100%)"
  },
  {
    "record-smiles": "CC(C)(C)c1cc(C(C)(C)C)c(NC(=O)c2c[nH]c3cccc(N)c3c2=O)cc1O",
    "% Activity": "+++ (>100%)"
  },
  {
    "record-smiles": "Cc1cc(C(C)(C)C)c(O)cc1NC(=O)c1c[nH]c2ccc(F)cc2c1=O",
    "% Activity": "++ (between 25% to 100%)"
  },
  {
    "record-smiles": "CCCc1ccc(NC(=O)c2c[nH]c3ccccc3c2=O)cc1N",
    "% Activity": "++ (between 25% to 100%)"
  }
]

Prompt line: If you can, please state the reported % Activity value of `CC(C)(C)OC(=O)Nc1ccc(NC(=O)c2c[nH]c3ccccc3c2=O)c(C(F)(F)F)c1` .
Response line: ++ (between 25% to 100%)

Prompt line: If you can, please state the reported % Activity value of `O=C(Nc1ccccc1-c1ccc(Oc2ccccc2)cc1)c1c[nH]c2ccccc2c1=O` .
Response line: +++ (>100%)

Prompt line: If you can, please state the reported % Activity value of `CC(C)N1CCN(c2ccc(NC(=O)c3c[nH]c4ccccc4c3=O)c(C(F)(F)F)c2)CC1` .
Response line: ++ (between 25% to 100%)

Prompt line: If you can, please state the reported % Activity value of `CN(C)[C@H]1CCN(c2ccc(NC(=O)c3c[nH]c4ccccc4c3=O)c(C(F)(F)F)c2)C1` .
Response line: ++ (between 25% to 100%)

Prompt line: If you can, please state the reported % Activity value of `O=C(Nc1ccccc1-c1cccc(Cl)c1)c1c[nH]c2ccccc2c1=O` .
Response line: ++ (between 25% to 100%)

Prompt line: If you can, please state the reported % Activity value of `COC(=O)c1cccc(-c2cc(C(C)(C)C)c(O)cc2NC(=O)c2c[nH]c3ccccc3c2=O)c1` .
Response line: ++ (between 25% to 100%)

Prompt line: If you can, please state the reported % Activity value of `CCOc1cccc(-c2ccccc2NC(=O)c2c[nH]c3ccccc3c2=O)c1` .
Response line: +++ (>100%)

Prompt line: If you can, please state the reported % Activity value of `COc1ccc(C(C)(C)C)cc1NC(=O)c1c[nH]c2ccccc2c1=O` .
Response line: ++ (between 25% to 100%)

Prompt line: If you can, please state the reported % Activity value of `N#Cc1ccc(-c2ccccc2NC(=O)c2c[nH]c3ccccc3c2=O)s1` .
Response line: ++ (between 25% to 100%)

Prompt line: If you can, please state the reported % Activity value of `Cc1ccccc1-c1ccccc1NC(=O)c1c[nH]c2ccccc2c1=O` .
Response line: ++ (between 25% to 100%)

Prompt line: If you can, please state the reported % Activity value of `CCc1ccc(NC(=O)c2c[nH]c3ccccc3c2=O)cc1NC(C)=O` .
Response line: ++ (between 25% to 100%)

Prompt line: If you can, please state the reported % Activity value of `CCc1cccc(C)c1NC(=O)c1c[nH]c2ccccc2c1=O` .
Response line: ++ (between 25% to 100%)

Prompt line: If you can, please state the reported % Activity value of `CNc1cccc2[nH]cc(C(=O)Nc3cc(O)c(C(C)(C)C)cc3C(C)(C)C)c(=O)c12` .
Response line: +++ (>100%)

Prompt line: If you can, please state the reported % Activity value of `O=C(Nc1ccccc1-c1nc2ccccc2[nH]1)c1c[nH]c2ccccc2c1=O` .
Response line: + (<25%)

Prompt line: If you can, please state the reported % Activity value of `CCOc1cccc2c(=O)c(C(=O)Nc3cc4[nH]ccc4cc3C(C)(C)C)c[nH]c12` .
Response line: + (<25%)

Prompt line: If you can, please state the reported % Activity value of `O=C(Nc1ccccc1CCO)c1c[nH]c2ccccc2c1=O` .
Response line: + (<25%)
